System: RPMI-8226 leukemia
Test Summary: NCI tumour cell line growth inhibition, 48 h; in the data active means GI50 below about 0.43 µM; inactive means the rest
Answer with one of the outcomes T = active, F = inactive

Task: Tell me the assay call for COc1cc2c(Nc3cc(Cl)c(OC)c(Cl)c3)c(C#N)cnc2cc1OCCCN1CCN(C)CC1 please.
Result: F

Task: Tell me the assay call for CC(C)c1[nH]nc2c1N=C(c1ccccc1Cl)c1cc([N+](=O)[O-])ccc1N2 please.
Result: F

Task: Tell me the assay call for COc1cc2cc(Oc3ccc(NC(=O)c4cc(C(F)(F)F)cc(C(F)(F)F)c4)cc3)c(C)nc2cc1OC please.
Result: F

Task: Tell me the assay call for Cc1cn(-c2cc(C(=O)Nc3cccc(-n4ccc5c(NC(=O)c6ccccc6)nccc54)c3)cc(C(F)(F)F)c2)cn1 please.
Result: T

Task: Tell me the assay call for O=C1Nc2ccccc2/C1=C1\CCc2cc(O)ccc21 please.
Result: F

###

System: NCI-H522 lung
Test Summary: NCI tumour cell line growth inhibition, 48 h
Please respond with reported GI50 for every item in the list.

Observe how each entry below is paired with its result.
Given Smiles | Result
COc1ccc(-c2nn(-c3cccc(Cl)c3)cc2-c2cc(-c3ccccc3)[nH]c(=O)c2C#N)cc1 | 3.59 µM
O=C(c1ccco1)c1c(C(F)(F)F)n([O-])c2ccc(C(F)(F)F)cc2[n+]1=O | 0.462 µM

Consider now this further molecule.
Task: Would you mind telling me what GI50 value was observed for CC(C)c1[nH]nc2c1N=C(c1ccccc1Cl)c1cc([N+](=O)[O-])ccc1N2 ?
Result: 2.29 µM

###

Test system: HOP-62 NSCLC
Test Summary: NCI tumour cell line growth inhibition, 48 h
Metric: GI50

Observe how each entry below is paired with its result.
Given Smiles | Result
COc1cc2cc(Oc3ccc(NC(=O)c4cc(C(F)(F)F)cc(C(F)(F)F)c4)cc3)c(C)nc2cc1OC | > 50000 nM
Cn1cc(-c2csc(-c3cn(CCCCN4CCCCC4)c4ccccc34)n2)c2cccnc21 | 1600 nM
CC(C)c1[nH]nc2c1N=C(c1ccccc1Cl)c1cc([N+](=O)[O-])ccc1N2 | 6580 nM
N#CCCN1C/C(=C/c2ccc(Br)cc2)C(=O)/C(=C/c2ccc(Br)cc2)C1 | 1660 nM

Consider now this further molecule.
Task: Would you mind telling me what GI50 value was observed for O=C(c1ccco1)c1c(C(F)(F)F)n([O-])c2ccc(C(F)(F)F)cc2[n+]1=O ?
Result: 1470 nM

###

Please respond with reported GI50 for every item in the list.
Tested on: ACHN renal
Test Summary: NCI tumour cell line growth inhibition, 48 h

Observe how each entry below is paired with its result.
Compound | Assayed System | GI50
CC(C)(C)[Si](C)(C)OC1[C@@H](CNC(=O)NC(=O)CCl)O[C@@H](n2cnc3c(N)ncnc32)[C@H]1O[Si](C)(C)C(C)(C)C (stereo not given in full) | ACHN renal | 462 nM
COc1cc2cc(Oc3ccc(NC(=O)c4cc(C(F)(F)F)cc(C(F)(F)F)c4)cc3)c(C)nc2cc1OC | ACHN renal | 2270 nM
O=C(Nc1cc(Cl)ccc1O)c1ccc(Nc2ccnc(C(F)(F)F)c2)cc1 | ACHN renal | 2350 nM

Parameter requested: GI50. Apply to each item below.
1. COc1ccc(-c2nccn2-c2ccc(OC)cc2)cc1
2. COc1ccc(-c2nn(-c3cccc(Cl)c3)cc2-c2cc(-c3ccccc3)[nH]c(=O)c2C#N)cc1

Result:
1: 5640 nM; 2: 1830 nM

###

Tested on: NCI-H460 lung
Test Summary: NCI tumour cell line growth inhibition, 48 h
Metric: TGI

Observe how each entry below is paired with its result.
Compound | TGI
O=c1[nH]cnc(NC2C=C(CO)C(O)C2O)c1[N+](=O)[O-] (centres undefined) | > 58.2 µM
Cc1ccc(CC[P+](=O)CCc2ccc(C)nc2)cn1 | > 100 µM
CCOC(=O)NC(=O)c1cn(C(CC)COC(=O)NCCCCCCNC(=O)OCC(CC)n2cc(C(=O)NC(=O)OCC)c(=O)[nH]c2=O)c(=O)[nH]c1=O (centres undefined) | > 100 µM
Cc1ccc(OCCn2cc(Nc3ccccc3)c(=O)n(CCOc3ccc(C)cc3)c2=O)cc1 | > 100 µM
Nc1nc(Cl)cc(NCC2(CO)CCC(CCc3ccccc3)C2)n1 (centres undefined) | 27.3 µM

Parameter requested: TGI. Apply to each item below.
1. CC(=O)O/N=C/c1c2ccccc2cc2ccccc12
2. COc1nc2ncc([C@@H](OC(C)=O)[C@@H](COC(C)=O)OC(C)=O)nc2c(=O)[nH]1
3. COc1cccc(/C=N/[N-]C(=O)c2ccncc2)c1[O-].COc1cccc(/C=N/[N-]C(=O)c2ccncc2)c1[O-].[O]=[U](=[O])([OH2+])[OH2+]
4. O=C(Nc1cc(Nc2ncccc2-c2ncnc3nc[nH]c23)ccc1F)c1cc(C(F)(F)F)cc(C(F)(F)F)c1

Result:
1. > 100 µM
2. > 100 µM
3. > 40.3 µM
4. 5.31 µM

###

System: HOP-92 NSCLC
Test Summary: NCI tumour cell line growth inhibition, 48 h
Metric: TGI (µM)
Answers are plain numbers, in µM.

Compound | TGI [µM]
CC(O)CCCOC(c1ccccc1)(c1ccccc1)c1ccccc1 (stereo not given) | 25.5

Consider now this further compound.
Task: Would you mind telling me what TGI value was observed for ClC(Cl)=C1C(=C(Cl)Cl)C(Cl)(Cl)C1(Cl)Cl ?
Result: 4.5

###

Test system: HCT-15 colon
Test Summary: NCI tumour cell line growth inhibition, 48 h
Please respond with reported TGI for every item in the list.

Observe how each entry below is paired with its result.
Compound | Assayed System | Metric | Result
COC(c1ccc(C(C)(C)C)cc1)(c1ccc(C(C)(C)C)cc1)c1ccc(C(C)(C)C)cc1 | HCT-15 colon | TGI | > 100 µM
CCN(CC)CCCNC(=O)c1ccc([N+](=O)[O-])cc1O | HCT-15 colon | TGI | > 100 µM
O=C(/C=C/c1ccccc1)c1ccccc1 | HCT-15 colon | TGI | > 10 µM
C[C@]12CC[C@@H]3c4ccc(O)cc4CC[C@H]3[C@@H]1C/C(=C\c1ccncc1)[C@@H]2O | HCT-15 colon | TGI | 33.3 µM
Nc1ccccc1C(=O)/C=C/c1c(O)ccc2ccccc12 | HCT-15 colon | TGI | > 100 µM
COc1ccc(CC2c3c(cc(OC)c(OC)c3OC)CCN2C)cc1OC (stereo not given) | HCT-15 colon | TGI | > 100 µM
COc1ccc(-c2c3c([nH]c(=S)c2C#N)CC(C)(C)CC3=O)cc1 | HCT-15 colon | TGI | > 100 µM
N/C(=N\S(=O)(=O)c1c(C(F)(F)F)cccc1C(F)(F)F)Nc1ccc(Cl)cc1 | HCT-15 colon | TGI | > 100 µM
c1csc(-c2ccc(-c3cccs3)c3nsnc23)c1 | HCT-15 colon | TGI | > 41.4 µM

Consider now this further compound.
Task: Would you mind telling me what TGI value was observed for COc1cccc(/C=N/[N-]C(=O)c2ccncc2)c1[O-].COc1cccc(/C=N/[N-]C(=O)c2ccncc2)c1[O-].[O]=[U](=[O])([OH2+])[OH2+] ?
Result: > 100 µM

###

System: A498 renal
Test Summary: NCI tumour cell line growth inhibition, 48 h
Metric: GI50

Parameter requested: GI50. Apply to each item below.
1. OC(c1cc(-c2ccc(C(F)(F)F)cc2)nc(C(F)(F)F)c1)C1CCCCN1 (stereo not given)
2. COc1ccc(-c2nccn2-c2ccc(OC)cc2)cc1
3. O=C(c1ccco1)c1c(C(F)(F)F)n([O-])c2ccc(C(F)(F)F)cc2[n+]1=O
4. Nc1cc2c(cc1Br)[nH]c(=O)c1ccccc12
5. O=C(Nc1cc(Cl)ccc1O)c1ccc(Nc2ccnc(C(F)(F)F)c2)cc1
6. N=C(N)c1ccc(-c2ccc(-c3cccs3)s2)cc1

Result:
["1470 nM", "14400 nM", "1410 nM", "3910 nM", "2390 nM", "462 nM"]

Parameter requested: GI50. Apply to each item below.
1. COc1cc(/C=C\c2cc(OC)c(OC)c(OC)c2)cc(N/C=C\C(=O)c2c[nH]c3ccccc23)c1OC
2. NNCCc1ccc(NC(=O)CCCc2ccc(C(=O)Nc3ccccc3N)cc2)cc1
3. CC(C)[C@H](O)C(=O)N[C@@H](C)C(=O)N[C@@H]1C(=O)N(C)CCc2ccccc21
4. CCCc1cc(=O)n2c(C(=O)Nc3ccc(Cl)cc3C)c(C(=O)Nc3ccc(F)cc3)sc2n1

Result:
1: 1320 nM; 2: 6540 nM; 3: > 100000 nM; 4: 29200 nM

###

Tested on: RXF 393 renal
Test Summary: NCI tumour cell line growth inhibition, 48 h
Metric: TGI (µM)
One number for each entry, in µM.

Parameter requested: TGI. Apply to each item below.
1. COc1cccc(/C=N/[N-]C(=O)c2ccncc2)c1[O-].COc1cccc(/C=N/[N-]C(=O)c2ccncc2)c1[O-].[O]=[U](=[O])([OH2+])[OH2+]
2. COc1cc2c(cc1OC)[C@H]1CN3CCC[C@H]3C=C1c1ccc(OC)c(O)c1-2
3. CCOC(=O)c1nc2ccc(C(F)(F)F)cc2nc1Oc1ccc(C#N)cc1

Result:
[25.3, 0.0437, 37.8]

Parameter requested: TGI. Apply to each item below.
1. CC(=O)N1CCN(c2ccc(OCC3COC(Cn4ccnc4)(c4ccc(Cl)cc4Cl)O3)cc2)CC1 (configuration not stated)
2. Cc1cc(Nc2nc(-c3cn(-c4ccc(Cl)cc4)nn3)nc3ccccc23)n[nH]1
3. COc1ccc(-c2nn(-c3cccc(Cl)c3)cc2-c2cc(-c3ccccc3)[nH]c(=O)c2C#N)cc1
4. C[C@]12CC[C@@H]3c4ccc(O)cc4CC[C@H]3[C@@H]1C/C(=C\c1ccncc1)[C@@H]2O
5. CC(C)c1[nH]nc2c1N=C(c1ccccc1Cl)c1cc([N+](=O)[O-])ccc1N2
6. CC(=O)O/N=C/c1c2ccccc2cc2ccccc12

Result:
1. 57.8
2. 26.1
3. 2.18
4. 7.73
5. 8.45
6. 86.2

Parameter requested: TGI. Apply to each item below.
1. CC(C)(C)[Si](C)(C)OC1[C@@H](CNC(=O)NC(=O)CCl)O[C@@H](n2cnc3c(N)ncnc32)[C@H]1O[Si](C)(C)C(C)(C)C (some centres not stated)
2. N=C(N)c1ccc(-c2ccc(-c3cccs3)s2)cc1
3. N#CCCN1C/C(=C/c2ccc(Br)cc2)C(=O)/C(=C/c2ccc(Br)cc2)C1

Result:
[1.58, 35.5, 3.04]
